Attribute: MIC
Tested on: Staphylococcus aureus
Test: Antimicrobial activity against methicillin-resistant Staphylococcus aureus 10*3d1 harboring hypothetical protein SA1826 14A mutant and rpoB 621A mutant after 24 hrs by Etest method
Format: functional
Settings: 10*3d1, 24 h

compound-string: CCCCCCCCCC(=O)N[C@@H](Cc1c[nH]c2ccccc12)C(=O)N[C@H](CC(N)=O)C(=O)N[C@@H](CC(=O)O)C(=O)N[C@@H]1C(=O)NCC(=O)N[C@@H](CCCN)C(=O)N[C@@H](CC(=O)O)C(=O)N[C@H](C)C(=O)N[C@@H](CC(=O)O)C(=O)NCC(=O)N[C@H](CO)C(=O)N[C@@H]([C@H](C)CC(=O)O)C(=O)N[C@@H](CC(=O)c2ccccc2N)C(=O)O[C@@H]1C
subject-of-test: Staphylococcus aureus
rel: =
MIC (mg/L): 0.25
--
compound-string: CO[C@H]1/C=C/O[C@@]2(C)Oc3c(C)c(O)c4c(O)c(c(/C=N/N5CCN(C)CC5)c(O)c4c3C2=O)NC(=O)/C(C)=C\C=C\[C@H](C)[C@H](O)[C@@H](C)[C@@H](O)[C@@H](C)[C@H](OC(C)=O)[C@@H]1C
subject-of-test: Staphylococcus aureus
rel: =
MIC (mg/L): 0.006
--
compound-string: CN[C@H](CC(C)C)C(=O)N[C@H]1C(=O)N[C@@H](CC(N)=O)C(=O)N[C@H]2C(=O)N[C@H]3C(=O)N[C@H](C(=O)N[C@H](C(=O)O)c4cc(O)cc(O)c4-c4cc3ccc4O)[C@H](O)c3ccc(c(Cl)c3)Oc3cc2cc(c3O[C@@H]2O[C@H](CO)[C@@H](O)[C@H](O)[C@H]2O[C@H]2C[C@](C)(N)[C@H](O)[C@H](C)O2)Oc2ccc(cc2Cl)[C@H]1O
subject-of-test: Staphylococcus aureus
rel: =
MIC (mg/L): 0.75
--
compound-string: Cc1onc(-c2ccccc2)c1C(=O)N[C@@H]1C(=O)N2[C@@H]1SC(C)(C)[C@@H]2C(=O)O
subject-of-test: Staphylococcus aureus
rel: >
MIC (mg/L): 256

====

Tested on: Staphylococcus aureus
Assay: Antimicrobial activity against methicillin-resistant Staphylococcus aureus 10*3d1 harboring hypothetical protein SA1826 14A mutant gene after 24 hrs by Etest method
Type: functional
Conditions: 10*3d1, 24 h
Attribute: MIC
test-readout: MIC (µg/mL)

compound-string: CCCCCCCCCC(=O)N[C@@H](Cc1c[nH]c2ccccc12)C(=O)N[C@H](CC(N)=O)C(=O)N[C@@H](CC(=O)O)C(=O)N[C@@H]1C(=O)NCC(=O)N[C@@H](CCCN)C(=O)N[C@@H](CC(=O)O)C(=O)N[C@H](C)C(=O)N[C@@H](CC(=O)O)C(=O)NCC(=O)N[C@H](CO)C(=O)N[C@@H]([C@H](C)CC(=O)O)C(=O)N[C@@H](CC(=O)c2ccccc2N)C(=O)O[C@@H]1C
unit-descriptor: µg/mL
rel: =
recorded-result: 1.5
--
compound-string: Cc1onc(-c2ccccc2)c1C(=O)N[C@@H]1C(=O)N2[C@@H]1SC(C)(C)[C@@H]2C(=O)O
unit-descriptor: µg/mL
rel: >
recorded-result: 256
--
compound-string: CO[C@H]1/C=C/O[C@@]2(C)Oc3c(C)c(O)c4c(O)c(c(/C=N/N5CCN(C)CC5)c(O)c4c3C2=O)NC(=O)/C(C)=C\C=C\[C@H](C)[C@H](O)[C@@H](C)[C@@H](O)[C@@H](C)[C@H](OC(C)=O)[C@@H]1C
unit-descriptor: µg/mL
rel: =
recorded-result: 0.006
--
compound-string: CN[C@H](CC(C)C)C(=O)N[C@H]1C(=O)N[C@@H](CC(N)=O)C(=O)N[C@H]2C(=O)N[C@H]3C(=O)N[C@H](C(=O)N[C@H](C(=O)O)c4cc(O)cc(O)c4-c4cc3ccc4O)[C@H](O)c3ccc(c(Cl)c3)Oc3cc2cc(c3O[C@@H]2O[C@H](CO)[C@@H](O)[C@H](O)[C@H]2O[C@H]2C[C@](C)(N)[C@H](O)[C@H](C)O2)Oc2ccc(cc2Cl)[C@H]1O
unit-descriptor: µg/mL
rel: =
recorded-result: 3

====

System: Staphylococcus aureus
Test: Antimicrobial activity against methicillin-resistant Staphylococcus aureus 10*3d1 harboring hypothetical protein SA1826 14E mutant gene after 24 hrs by Etest method
Assay type: functional
Conditions: 10*3d1, 24 h
Attribute: MIC

compound-string: CO[C@H]1/C=C/O[C@@]2(C)Oc3c(C)c(O)c4c(O)c(c(/C=N/N5CCN(C)CC5)c(O)c4c3C2=O)NC(=O)/C(C)=C\C=C\[C@H](C)[C@H](O)[C@@H](C)[C@@H](O)[C@@H](C)[C@H](OC(C)=O)[C@@H]1C
MIC: 0.006 µg/mL

compound-string: CCCCCCCCCC(=O)N[C@@H](Cc1c[nH]c2ccccc12)C(=O)N[C@H](CC(N)=O)C(=O)N[C@@H](CC(=O)O)C(=O)N[C@@H]1C(=O)NCC(=O)N[C@@H](CCCN)C(=O)N[C@@H](CC(=O)O)C(=O)N[C@H](C)C(=O)N[C@@H](CC(=O)O)C(=O)NCC(=O)N[C@H](CO)C(=O)N[C@@H]([C@H](C)CC(=O)O)C(=O)N[C@@H](CC(=O)c2ccccc2N)C(=O)O[C@@H]1C
MIC: 1.5 µg/mL

compound-string: Cc1onc(-c2ccccc2)c1C(=O)N[C@@H]1C(=O)N2[C@@H]1SC(C)(C)[C@@H]2C(=O)O
MIC: > 256 µg/mL

compound-string: CN[C@H](CC(C)C)C(=O)N[C@H]1C(=O)N[C@@H](CC(N)=O)C(=O)N[C@H]2C(=O)N[C@H]3C(=O)N[C@H](C(=O)N[C@H](C(=O)O)c4cc(O)cc(O)c4-c4cc3ccc4O)[C@H](O)c3ccc(c(Cl)c3)Oc3cc2cc(c3O[C@@H]2O[C@H](CO)[C@@H](O)[C@H](O)[C@H]2O[C@H]2C[C@](C)(N)[C@H](O)[C@H](C)O2)Oc2ccc(cc2Cl)[C@H]1O
MIC: 3 µg/mL
